Reported pKi is given for each of the following molecules.
System tested: Sigma non-opioid intracellular receptor 1 (Rattus norvegicus)
Sequence (Q9R0C9 whole entry): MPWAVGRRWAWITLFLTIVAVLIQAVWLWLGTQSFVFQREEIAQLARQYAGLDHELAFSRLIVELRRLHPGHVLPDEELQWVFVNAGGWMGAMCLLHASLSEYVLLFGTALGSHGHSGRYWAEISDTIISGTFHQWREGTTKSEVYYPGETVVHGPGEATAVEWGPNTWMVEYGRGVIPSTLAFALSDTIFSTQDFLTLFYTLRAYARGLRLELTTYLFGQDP
Test summary: Inhibitory activity against Sigma opioid receptor type 1 isolated from whole rat membranes using [3H](+)-pentazocine as radioligand.
Quick note: pKi means taking -log10 of the concentration in moles per liter.

Consider the worked cases shown below.
[
  {
    "Molecule": "COc1cccc2c1CCCC2CCCN1CCN(Cc2ccccc2)CC1 (centres undefined)",
    "pKi": 7.59
  },
  {
    "Molecule": "COc1cccc2c1CCCC2CCCN1CCN(C2CCCCC2)CC1 (centres undefined)",
    "pKi": 7.15
  },
  {
    "Molecule": "COc1cccc2c1CCCC2CCCCN1CCN(C2=NCCCC2)CC1 (centres undefined)",
    "pKi": 6.40
  }
]

Please fill in: pKi reported for c1ccc2c(c1)CCCC2CCCN1CCN(C2=NCCCC2)CC1 (centres undefined) = 6.95
